These data points were gathered from patent US10968193B2.

- TARGET ENTITY: human GPR40 (Homo sapiens)
- Construct: expressed in transfected cells; host or cells: HEK cells stably expressing the aequorin reporter
- ASSAY PROTOCOL: Inositol Phosphate Turnover (IP1) Assay 2
- Assay type: cell-based
- SETUP CONDITIONS: HEK cells stably expressing human GPR40; 15,000 cells per well; compound acoustically transferred; CisBio IP-One kit
MEASURED ATTRIBUTE: EC50 (nM)

1: COc1cc(-c2ccc(C3CCc4ccc([C@H](C5CC5)[C@H](C)C(=O)O)cc4O3)cc2CN2CCCCC2)c(F)cn1 (mixture of isomers)
2: COc1cc(-c2ccc(C3CCc4ccc([C@H](C5CC5)[C@H](C)C(=O)O)cc4O3)cc2CN2CC[C@H](C(F)(F)F)C2)c(F)cn1 (single isomer, unassigned) [Example 29]
3: COc1cc(-c2ccc(C3CCc4ccc([C@H](C5CC5)[C@H](C)C(=O)O)cc4O3)cc2CN(C2CC2)C2CC2)c(F)cn1 (mixture of isomers)
Input: Arrange these molecules by their EC50, starting with the largest number. Field: ranking. Enter the labels in the order requested.
Output: 1, 2, 3
(1: 2.3 nM, 2: 0.8 nM, 3: 0.35 nM)

====

- TARGET ENTITY: human GPR40 (Homo sapiens)
- Construct: expressed in transfected cells; host or cells: HEK cells stably expressing the aequorin reporter
- ASSAY PROTOCOL: Inositol Phosphate Turnover (IP1) Assay 3
- Type: cell-based
- SETUP CONDITIONS: HEK cells stably expressing human GPR40
pEC50: −log10 of the molar value.
MEASURED ATTRIBUTE: pEC50

Examples with their reported pEC50 follow.
CCN(CC)Cc1cc(C2CCc3ccc([C@H](C4CCC4)[C@H](C)C(=O)O)cc3O2)ccc1-c1cc(OC)ncc1F (single isomer, unassigned) [Example 98] = 10.05
COc1cc(-c2ccc(C3CCc4ccc([C@H](C5CC5)[C@H](C)C(=O)O)cc4O3)cc2CN2[C@@H](C)CCC[C@@H]2C)c(F)cn1 (stereo partly drawn) [Example 231] = 9.80
CCN(CC)Cc1nc(C2CCc3ccc([C@H](C4CC4)[C@H](C)C(=O)O)cc3O2)ccc1-c1cc(OC)ncc1F (single isomer, unassigned) [Example 88] = 8.17

A: CCC1CCCCN1Cc1cc(C2CCc3ccc(C(C4CC4)C(C)C(=O)O)cc3O2)ccc1-c1ccnc(OC)c1 (single isomer, unassigned) [Example 258a]
B: COc1cc(-c2ccc(C3CCc4ccc([C@H](C5CC5)[C@H](C)C(=O)O)cc4O3)c(CN3CCCCC34CC4)c2)ccn1 (single isomer, unassigned) [Example 224]
Input: Please let me know which one, A or B , has a lower measured pEC50 value. Write the label of whichever entry you select.
Output: B
(B: 7.96, A: 8.77)

I: COc1cc(-c2ccc(C3CCc4ccc([C@H](C5CC5)[C@H](C)C(=O)O)cc4O3)cc2CN(C(C)C)C(C)(C)C)ccn1 (stereo partly drawn) [Example 237]
II: COc1cc(-c2ccc(C3CCc4ccc([C@H](C5CC5)[C@H](C)C(=O)O)cc4O3)nc2CN(C(C)C)C(C)C)ccn1 (stereo partly drawn) [Example 91]
Input: Hi, I'm comparing I with II and wondering which one has the bigger number for pEC50. Any idea? Write the label of whichever entry you select.
Output: I
(I: 9.77, II: 6.33)

P: COc1cc(-c2ccc(C3CCc4ccc([C@H](C5CC5)[C@H](C)C(=O)O)cc4O3)cc2CN(C)C(C)C)c(F)cn1 (stereo partly drawn) [Example 254]
Q: CCN(CC)Cc1cc(C2CCc3ccc([C@H](C4CC4)[C@H](C)C(=O)O)cc3O2)ccc1-c1cc(OC)ncc1C#N (stereo partly drawn) [Example 291]
Input: Please let me know which one, P or Q , has a lower measured pEC50 value. Write the label of whichever entry you select.
Output: Q
(Q: 8.51, P: 9.00)

I: COc1cc(-c2ccc([C@H]3CCc4ccc([C@H](C5CC5)[C@H](C)C(=O)O)cc4O3)cc2CN(C(C)C)C(C)C)c(F)cn1 [Example 170]
II: COc1cc(-c2ccc(C3CCc4ccc([C@H](C5CC5)[C@H](C)C(=O)O)cc4O3)cc2CN2CCCC3(CC3)C2)c(F)cn1 (stereo partly drawn) [Example 260]
Input: Please let me know which one, I or II , has a lower measured pEC50 value. Write the label of whichever entry you select.
Output: II
(II: 9.05, I: 10.15)

====

- TARGET ENTITY: human GPR40 (Homo sapiens, UniProt O14842)
- Construct: expressed in transfected cells; host or cells: HEK cells stably expressing the aequorin reporter
- Sequence (O14842 whole entry): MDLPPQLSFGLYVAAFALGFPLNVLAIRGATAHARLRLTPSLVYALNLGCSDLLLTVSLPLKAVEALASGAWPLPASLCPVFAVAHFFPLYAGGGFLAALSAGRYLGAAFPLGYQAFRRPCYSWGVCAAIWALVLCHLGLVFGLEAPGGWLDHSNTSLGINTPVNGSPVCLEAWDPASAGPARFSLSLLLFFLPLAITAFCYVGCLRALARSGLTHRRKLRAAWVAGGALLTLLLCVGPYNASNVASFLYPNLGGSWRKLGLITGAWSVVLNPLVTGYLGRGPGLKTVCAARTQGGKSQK
- ASSAY PROTOCOL: Inositol Phosphate Turnover (IP1) Assay 3
- Assay type: cell-based
- SETUP CONDITIONS: HEK cells stably expressing human GPR40
MEASURED ATTRIBUTE: EC50 (nM)

COc1cc(-c2ccc(C3CCc4ccc([C@H](C5CC5)[C@H](C)C(=O)O)cc4O3)c(CN3CCC[C@@H]3C)c2)ccn1 (single isomer, unassigned) [Example 118b] = 109

A: COc1cc(-c2ccc(C3CCc4ccc([C@H](C5CC5)[C@H](C)C(=O)O)cc4O3)cc2CN2CCCCC23CC3)ccn1 (single isomer, unassigned) [Example 222]
B: COc1cc(-c2ccc(C3CCc4ccc([C@H](C5CC5)[C@H](C)C(=O)O)cc4O3)c(F)c2CN2CCCC2)c(F)cn1 (single isomer, unassigned) [Example 219]
C: COc1cc(-c2ccc(C3CCc4ccc([C@H](C5CC5)[C@H](C)C(=O)O)cc4O3)cc2CN2CCCC2)ccn1 (some centres unmarked) [Example 175]
Input: Which order do these items take when sorted by rising EC50? List them. Field: ranking. Enter the labels in the order requested.
Output: A, B, C
(A: 1.3 nM, B: 2 nM, C: 53 nM)

====

- TARGET ENTITY: human GPR40 (Homo sapiens, UniProt O14842)
- Construct: expressed in transfected cells; host or cells: HEK cells stably expressing the aequorin reporter
- ASSAY PROTOCOL: Inositol Phosphate Turnover (IP1) Assay 3
- Assay type: cell-based
- SETUP CONDITIONS: HEK cells stably expressing human GPR40
pEC50: −log10 of the molar value.
MEASURED ATTRIBUTE: pEC50

COc1cc(-c2ccc(C3CCc4ccc([C@H](C5CC5)[C@H](C)C(=O)O)c(F)c4O3)cc2CN2CCC[C@@H]2C)c(F)cn1 (single isomer, unassigned) [Example 212] = 8.51
COc1cc(-c2ccc(C3CCc4ccc([C@H](C5CC5)[C@H](C)C(=O)O)cc4O3)cc2CN2CCCC3(CC3)C2)ccn1 (some centres unmarked) [Example 277] = 8.72
COc1cc(-c2ccc(C3CCc4ccc([C@H](C5CC5)[C@H](C)C(=O)O)cc4O3)cc2CN2[C@H](C)CCC[C@@H]2C)ccn1 (some centres unmarked) [Example 239] = 8.96

1: COc1cc(-c2ccc(C3CCc4ccc([C@H](C5CC5)[C@H](C)C(=O)O)cc4O3)c(CN3CCC[C@H]3C)c2)ccn1 (single isomer, unassigned) [Example 119a]
2: CCN(C(C)C)C(C)c1cc(C2CCc3ccc([C@H](C4CC4)[C@H](C)C(=O)O)cc3O2)ccc1-c1ccnc(OC)c1 (single isomer, unassigned) [Example 248]
Input: Please let me know which one, 1 or 2 , has a lower measured pEC50 value. Write the label of whichever entry you select.
Output: 1

a: COc1cc(-c2ccc(C3CCc4ccc([C@H](C5CCC5)[C@H](C)C(=O)O)cc4O3)cc2CN2CCCCC23CC3)c(F)cn1 (single isomer, unassigned) [Example 106]
b: COc1cc(-c2ccc(C3CCc4ccc([C@H](C5CC5)[C@H](C)C(=O)O)cc4O3)c(CN(C)C(C)(C)C)c2)ccn1 (mixture of isomers) [Example 114]
Input: Hi, I'm comparing a with b and wondering which one has the bigger number for pEC50. Any idea? Write the label of whichever entry you select.
Output: a
(a: 9.70, b: 8.30)

A: COc1cc(-c2ccc(C3CCc4ccc([C@H](C5CC5)[C@H](C)C(=O)O)c(F)c4O3)cc2CN2[C@H](C)CC[C@H]2C)c(F)cn1 (single isomer, unassigned) [Example 209]
B: COc1cc(-c2ccc(C3CCc4ccc([C@H](C5CC5)[C@H](C)C(=O)O)cc4O3)nc2CN2CCCC2)c(F)cn1 (some centres unmarked) [Example 90]
Input: Please let me know which one, A or B , has a lower measured pEC50 value. Write the label of whichever entry you select.
Output: B

I: CCOc1cc(-c2ccc(C3CCc4ccc([C@H](C5CC5)[C@H](C)C(=O)O)cc4O3)cc2CN(CC)CC)c(Cl)cn1 (single isomer, unassigned) [Example 214]
II: COc1cc(-c2ccc(C3CCc4ccc([C@H](C5CC5)[C@H](C)C(=O)O)cc4O3)c(CN3CCCCC3(C)C)c2)ccn1 (mixture of isomers) [Example 117]
Input: Please let me know which one, I or II , has a lower measured pEC50 value. Write the label of whichever entry you select.
Output: I
(I: 7.92, II: 9.22)
